test system: BT-549; test: NCI 60 cell line screen (SRB), Breast Cancer; type: cell-based; details: BT-549 (Breast Cancer)
The reader will find reported Log10GI50 values listed item by item below.
Note to self: number, then unit, no commentary.

Compound	Target or test system	Log10GI50
COC1OC2(C)CCC3CCCC(CCOC(=O)c4cccc(C(=O)OCCC5CCCC6CCC7(C)OOC56C(OC)O7)c4)C31OO2 (centres unmarked) [Compound 10, Trioxane Bis-ester Dimer]	BT-549	−5.47 M

-- ask Any idea what Log10GI50 was measured for CC(=O)O[C@H]1C(=O)[C@@]2(C)[C@H]([C@H](OC(=O)c3ccccc3)[C@]3(O)C[C@H](OC(=O)[C@H](O)[C@@H](NC(=O)c4ccccc4)c4ccccc4)C(C)=C1C3(C)C)[C@]1(OC(C)=O)CO[C@@H]1C[C@@H]2O [Paclitaxel, paclitaxel, reference compound] ?
-- reply −9.31 M

* * *

compounds and their reported Log10TGI
tested on: NCI-H226; experiment: NCI 60 cell line screen (SRB), Non-Small Cell Lung Cancer; type: cell-based

Compound	Log10TGI
COC1OC2(C)CCC3CCCC(CCOC(=O)c4ccc(C(=O)OCCC5CCCC6CCC7(C)OOC56C(OC)O7)cc4)C31OO2 (stereo not shown) [Compound 11, Bis-ester Dimer]	>−4.00 M
COC1OC2(C)CCC3CCCC(CCOCCC4CCCC5CCC6(C)OOC45C(OC)O6)C31OO2 (stereo not shown) [Compound 6, Trioxane Ether Dimer]	>−4.00 M
COC1OC2(C)CCC3CCCC(CCOC(=O)c4cccc(C(=O)OCCC5CCCC6CCC7(C)OOC56C(OC)O7)c4)C31OO2 (stereo not shown) [Compound 10, Trioxane Bis-ester Dimer]	>−4.30 M

Consider now this further compound.
-- ask Request body: readout Log10TGI, system NCI-H226, query C[C@@H]1CC[C@H]2[C@@H](C)C(=O)O[C@@H]3O[C@@]4(C)CC[C@@H]1[C@]32OO4 [QHS, reference compound] . Return the value.
-- reply >−4.00 M

* * *

tested on: HOP-62; experiment: NCI 60 cell line screen (SRB), Non-Small Cell Lung Cancer; type: cell-based; settings: HOP-62 (Non-Small Cell Lung Cancer)
Item-by-item account of Log10GI50
Give the number; M is assumed, so skip it.

Molecule	Unit	Log10GI50
COC1OC2(C)CCC3CCCC(CCOC(=O)c4cccc(C(=O)OCCC5CCCC6CCC7(C)OOC56C(OC)O7)c4)C31OO2 (centres unmarked)	M	−5.11
COC1OC2(C)CCC3CCCC(CCOC(=O)c4ccc(C(=O)OCCC5CCCC6CCC7(C)OOC56C(OC)O7)cc4)C31OO2 (centres unmarked)	M	−5.01

-- ask # lookup: Log10GI50 of CC(=O)O[C@H]1C(=O)[C@@]2(C)[C@H]([C@H](OC(=O)c3ccccc3)[C@]3(O)C[C@H](OC(=O)[C@H](O)[C@@H](NC(=O)c4ccccc4)c4ccccc4)C(C)=C1C3(C)C)[C@]1(OC(C)=O)CO[C@@H]1C[C@@H]2O [Paclitaxel, paclitaxel, reference compound]
-- reply −9.67

-- ask Same read-out for COC1OC2(C)CCC3CCCC(CCOCCC4CCCC5CCC6(C)OOC45C(OC)O6)C31OO2 (centres unmarked) ?
-- reply −4.92
